- METHOD: Aqueous kinetic solubility at pH 7.4 by turbidimetric assay
- Assay type: physicochemical
- CONDITION LABEL: read-out: Kinetic_solubility
READOUT LABEL: solubility kinetic (mg/mL)

A selection of reference data follows.
[[record]]
compound = "CC(C)(C)c1cc(C(=O)Nc2cccc(CN)n2)n(Cc2ccccc2)n1"
reading_unit = "mg/mL"
numeric_result = 0.04

[[record]]
compound = "CC(C)(C)c1cc(C(=O)Nc2nc(CN)cs2)n(Cc2ccccc2Cl)n1"
reading_unit = "mg/mL"
numeric_result = 0.08

[[record]]
compound = "Cc1ccc(-c2cc(C(=O)Nc3nc(CN)cs3)n(Cc3ccccc3)n2)cc1"
reading_unit = "mg/mL"
numeric_result = 0.04

[[record]]
compound = "N#Cc1ccc(C(=O)Nc2nc(CN)cs2)cc1"
reading_unit = "mg/mL"
numeric_result = 0.02

[[record]]
compound = "NCc1csc(NC(=O)c2ccc(OC(F)(F)F)cc2)n1"
reading_unit = "mg/mL"
numeric_result = 0.04


1 = NCc1csc(NC(=O)c2cscn2)n1
2 = CC(C)(C)c1ccc(Cn2nc(C(C)(C)C)cc2C(=O)Nc2nc(CN)cs2)cc1
3 = Cc1cc(C(=O)Nc2nc(CN)cs2)n(Cc2ccccc2)n1
4 = NCc1csc(NC(=O)c2ccc(C(F)(F)F)cc2)n1
Enquiry: Arrange these compounds by their solubility kinetic, starting with the largest number. Reply with the labels, ordered as the question asks.
Return: 3, 1, 4, 2
(3: 0.16 mg/mL, 1: 0.08 mg/mL, 4: 0.04 mg/mL, 2: 0.01 mg/mL)

a = NCc1csc(NC(=O)c2cccs2)n1
b = CC(C)(C)c1cc(C(=O)Nc2nc(CN)cs2)n(-c2ccccc2)n1
Enquiry: Could you check which of a and b has a smaller value for solubility kinetic? Lab log: write the label of the selected item as the result.
Return: a
(a: 0.08 mg/mL, b: 0.16 mg/mL)

----------
- Test system: Plasmodium falciparum
- METHOD: microbe, parasite or virus in culture
- CONDITION LABEL: NF54
- Description: Antiplasmodial activity against chloroquine-sensitive Plasmodium falciparum NF54 asexual erythrocyte stages by parasite lactate dehydrogenase assay
READOUT LABEL: IC50 (µM)

[[record]]
compound = "NCc1csc(NC(=O)c2ccc(C(F)(F)F)cc2)n1"
numeric_result = 40.2

[[record]]
compound = "Cc1cc(C(=O)Nc2nc(CN)cs2)n(Cc2ccccc2)n1"
numeric_result = 19.8

[[record]]
compound = "NCc1csc(NC(=O)c2ccc(OC(F)(F)F)cc2)n1"
numeric_result = 43.9

[[record]]
compound = "CC(C)(C)c1cc(C(=O)Nc2nc(CN)cs2)n(Cc2ccc(Cl)cc2)n1"
numeric_result = 12.1

[[record]]
compound = "CC(C)(C)c1cc(C(=O)Nc2ncc(CN)s2)n(Cc2ccccc2)n1"
numeric_result = 9.09

[[record]]
compound = "CC(C)(C)c1cc(C(=O)Nc2nc(CN)cs2)n(Cc2ccc(F)cc2F)n1"
numeric_result = 4.7

[[record]]
compound = "NCc1csc(NC(=O)c2cnccn2)n1"
numeric_result = 173

[[record]]
compound = "NCc1csc(NC(=O)c2cccs2)n1"
numeric_result = 91.7

[[record]]
compound = "NCc1csc(NC(=O)c2ccc(F)cc2)n1"
numeric_result = 123

[[record]]
compound = "N#Cc1ccc(C(=O)Nc2nc(CN)cs2)cc1"
numeric_result = 146


I = NCc1csc(NC(=O)c2cscn2)n1
II = CC(C)(C)c1cc(C(=O)Nc2nc(CN)cs2)n(-c2ccccc2)n1
Enquiry: I'd appreciate it if you could identify which of I and II has the greater IC50. Lab log: write the label of the selected item as the result.
Return: I

----------
Here, each record is paired with measured solubility kinetic data.
- METHOD: Aqueous kinetic solubility at pH 7.4 by turbidimetric assay
- Assay type: physicochemical
- CONDITION LABEL: read-out: Kinetic_solubility

A selection of reference data follows.
[[record]]
compound = "CC(C)(C)c1cc(C(=O)Nc2nc(CN)cs2)n(Cc2ccc(Br)cc2)n1"
result = "> 200 µg/mL"

[[record]]
compound = "CC(C)(C)c1cc(C(=O)Nc2nc(CN)cs2)n(Cc2ccccc2)n1"
result = "> 200 µg/mL"

[[record]]
compound = "NCc1csc(NC(=O)c2ccc(F)cc2)n1"
result = "80 µg/mL"

[[record]]
compound = "NCc1csc(NC(=O)c2cnccn2)n1"
result = "> 200 µg/mL"

[[record]]
compound = "CC(C)(C)c1cc(C(=O)Nc2nc(CN)cs2)n(Cc2ccc(Cl)cc2)n1"
result = "> 200 µg/mL"

[[record]]
compound = "NCc1csc(NC(=O)c2ccnn2Cc2ccccc2)n1"
result = "> 200 µg/mL"


Proceeding to the next molecule to report its solubility kinetic.
Enquiry: Entry `CC(C)(C)c1cc(C(=O)Nc2ncc(CN)s2)n(Cc2ccccc2)n1` has what solubility kinetic?
Return: 80 µg/mL
